Kindly state Binding Level sample 2 (RU) for each of the entries shown.
# target-desc: T1, recombinant human OX40L (extracellular domain, R&D Systems) (human, UniProt P23510 51-183)
# T1 construct: also called hOX40L; rec. hOX40L
# T1 sequence: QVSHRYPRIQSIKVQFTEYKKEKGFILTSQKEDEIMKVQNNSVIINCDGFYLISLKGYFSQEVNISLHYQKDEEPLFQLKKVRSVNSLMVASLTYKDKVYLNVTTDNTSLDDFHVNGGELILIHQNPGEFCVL
# protocol-text: SPR, second injection after competitor OX40L19A07
Give bare numbers, in RU.

For orientation, consider the following solved cases.
>  <binder>
OX40L19A07 (VHH, monovalent Nanobody from E. coli; not shown: C-terminal c-myc and His6 tag) VHH: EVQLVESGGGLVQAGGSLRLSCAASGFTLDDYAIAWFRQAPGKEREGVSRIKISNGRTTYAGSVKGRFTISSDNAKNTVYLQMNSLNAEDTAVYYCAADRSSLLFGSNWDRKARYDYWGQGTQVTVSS

>  <display-unit>
RU

>  <measured-number>
183

$$$$
>  <binder>
OX40L19D08 (VHH, monovalent Nanobody from E. coli; not shown: C-terminal c-myc and His6 tag) VHH: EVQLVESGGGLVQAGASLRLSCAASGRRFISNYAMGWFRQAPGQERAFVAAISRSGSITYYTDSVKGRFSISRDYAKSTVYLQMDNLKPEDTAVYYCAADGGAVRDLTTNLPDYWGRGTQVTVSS

>  <display-unit>
RU

>  <measured-number>
224

$$$$
>  <binder>
OX40L01E10 (VHH, monovalent Nanobody from E. coli; not shown: C-terminal c-myc and His6 tag) VHH: EVQLVESGGGLVQAGDSLRLSCAASGLTFSSFAMGWFRQAPGKEREFVAAISRSGYGTSEADSVRDRFIISRDNAKNTVTLHLSRLKPEDTAVYYCAAEHTLGRPSRSQINYLYWGQGTQVTVSS

>  <display-unit>
RU

>  <measured-number>
183

$$$$
>  <binder>
OX40L15B07 (VHH, monovalent Nanobody from E. coli; not shown: C-terminal c-myc and His6 tag) VHH: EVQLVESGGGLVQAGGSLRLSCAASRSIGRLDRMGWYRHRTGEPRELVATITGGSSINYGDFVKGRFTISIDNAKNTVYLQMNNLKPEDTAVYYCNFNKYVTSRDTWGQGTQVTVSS

>  <display-unit>
RU

>  <measured-number>
200

$$$$
>  <binder>
OX40L01B11 (VHH, monovalent Nanobody from E. coli; not shown: C-terminal c-myc and His6 tag) VHH: EVQLVESGGGLVQAGGSLRLSCVASGRSFSTYIMGWFRQAPGKEREFVATISRSGITTRSADSVKGRFTISRDNAKNTVYLQMNSLKPEDTAVYYCAAGPYVEQTLGLYQTLGPWDYWGQGTQVTVSS

>  <display-unit>
RU

>  <measured-number>
358

$$$$
>  <binder>
OX40L18E09 (VHH, monovalent Nanobody from E. coli; not shown: C-terminal c-myc and His6 tag) VHH: EVQLVESGGGLVQAGGSLRLSCAASRNILSLNTMGWYRHAPGKPRELVARISSNSKTDYADSVKGRFTISRDNAKNTVLLQMNSLKPEDTGVYYCNLNVWRTSSDYWGQGTQVTVSS

>  <display-unit>
RU

>  <measured-number>
206

$$$$

input: Which Binding Level sample 2 (RU) is listed for OX40L01E07 (VHH, monovalent Nanobody from E. coli; not shown: C-terminal c-myc and His6 tag) VHH: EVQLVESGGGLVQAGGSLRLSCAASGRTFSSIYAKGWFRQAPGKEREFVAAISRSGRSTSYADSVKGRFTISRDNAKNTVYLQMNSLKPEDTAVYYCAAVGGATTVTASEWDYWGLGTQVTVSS ?
output: 240

Data origin: patent US20150218281A1
